All figures here come from patent US20200223889A1.

Molecular target: human MC4R (Homo sapiens)
Construct: expressed in transfected cells
Sequence (P32245 whole entry): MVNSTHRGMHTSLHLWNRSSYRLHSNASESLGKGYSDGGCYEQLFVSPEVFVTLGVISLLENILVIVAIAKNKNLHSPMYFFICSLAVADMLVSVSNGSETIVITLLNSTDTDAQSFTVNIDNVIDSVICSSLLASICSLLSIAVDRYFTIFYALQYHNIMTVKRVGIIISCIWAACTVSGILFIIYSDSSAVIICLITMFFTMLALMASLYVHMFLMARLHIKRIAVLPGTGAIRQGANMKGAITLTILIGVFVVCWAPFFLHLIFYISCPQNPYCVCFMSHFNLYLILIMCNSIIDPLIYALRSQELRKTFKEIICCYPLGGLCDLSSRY
Experiment: 125NDP-α-MSH competitive binding to membranes of BHK cells expressing human MC4 receptor (filtration assay)
Details: human MC4R, BHK cell membranes, 125NDP-α-MSH radioligand; read-out: MC4R binding Ki
Method: In Vitro ^125NDP-α-MSH Binding to Recombinant BHK Cells Expressing Human MC4 Receptor (Filtration Assay) […] The BHK cell membranes were prepared from frozen or fresh cells that were homogenized in 20 mM HEPES pH 7.1, 5 mM MgCl2, 1 mg/ml bacitracin (buffer 1) and centrifuged at 15000 rpm at 4° C., 10 min in a Sorvall RC 5B plus, SS-34 rotor. […] The radioactivity retained on the filters was counted using a Packard Topcounter. […]
Positions of bridges follow the written chain, without caps; N, C: chain ends. Non-standard residues stand in square brackets, D forms with d. Residues, ends and D or L forms follow the SMILES beside them. Phe(3,4-(OMe)2) = COc1ccc(C[C@H](N)C(=O)O)cc1OC; 2Nal = N[C@@H](Cc1ccc2ccccc2c1)C(=O)O; hCit = NC(=O)NCCCC[C@H](N)C(=O)O
Reported Ki values for a set of compounds
Output spec: scalar in pM, unitless text.

Previously resolved entries follow.
| Compound | System Tested | Ki (pM) |
| --- | --- | --- |
| C[C@@H]1NC(=O)[C@@H]2CSSC[C@H](NC(=O)[C@H](CCCNC(=N)N)NC(=O)[C@H](CCCCN)NC(=O)[C@H](CCCCN)NC(=O)[C@H](CCCCN)NC1=O)C(=O)N1CCC[C@H]1C(=O)N[C@@H](Cc1c[nH]cn1)C(=O)N[C@H](Cc1ccccc1)C(=O)N[C@@H](CCCCNC(N)=O)C(=O)N[C@@H](Cc1c[nH]c3ccccc13)C(=O)N2 [Chem. 99] (cyclo(AKKKRCPH[dF][hCit]WC); disulfide 6-12) | human MC4R (Homo sapiens) | 100 |
| COc1ccc(C[C@@H]2NC(=O)[C@H](CCCNC(=N)N)NC(=O)[C@@H](Cc3ccccc3)NC(=O)[C@H](Cc3c[nH]cn3)NC(=O)[C@@H]3CCCN3C(=O)[C@@H]3CSSC[C@H](NC2=O)C(=O)N[C@@H](C)C(=O)N[C@@H](CCCCN)C(=O)N[C@@H](CCCCN)C(=O)N[C@@H](CCCCN)C(=O)N[C@@H](CCCNC(=N)N)C(=O)N3)cc1OC [Chem. 94] (cyclo(AKKKRCPH[dF]R[Phe(3,4-(OMe)2)]C); disulfide 6-12) | human MC4R (Homo sapiens) | 250 |

Entry C[C@@H]1NC(=O)[C@@H]2CSSC[C@H](NC(=O)[C@H](Cc3ccc4ccccc4c3)NC(=O)[C@H](CCCNC(=N)N)NC(=O)[C@@H](Cc3ccccc3)NC(=O)[C@H](Cc3c[nH]cn3)NC1=O)C(=O)N[C@@H](C)C(=O)N[C@@H](CCCCN)C(=O)N[C@@H](CCCCN)C(=O)N[C@@H](CCCCN)C(=O)N[C@@H](Cc1c[nH]c3ccccc13)C(=O)N2 [Chem. 79] (cyclo([2Nal]CAKKKWCAH[dF]R); disulfide 2-8) ; Ki = 30
